- experimental_system: human 5-HT2B (Homo sapiens)
- protocol_text: FLIPR calcium flux assay, 5-HT2B
- Type: cell-based
- stated_conditions: FLIPR, HEK-293 cells stably expressing human receptor
Hi! Just check whether Emax 5-HT2B is below 60%. Below gives satisfied, equal or above gives not satisfied.

INSERT INTO assay_data (compound, assigned_category) VALUES
  ('Cl.NCC1CC1c1c(OCCF)ccc(Cl)c1Cl (single isomer, unassigned; (-)) [(–)-21f]', 'not satisfied');

Lab log: compare recorded Emax 5-HT2B with 60%; is it strictly lower for C=CCOc1cc(F)c(Cl)cc1C1CC1CN.Cl (single isomer, unassigned; (+)) [(+)-22c] ?
satisfied

Lab log: compare recorded Emax 5-HT2B with 60%; is it strictly lower for COc1ccc(Cl)c(Cl)c1C1CC1CN.Cl (single isomer, unassigned; (+)) [(+)-20f] ?
satisfied

Lab log: compare recorded Emax 5-HT2B with 60%; is it strictly lower for Cl.NCC1CC1c1c(OCCF)ccc(Cl)c1Cl (single isomer, unassigned; (+)) [(+)-21f] ?
not satisfied

Lab log: compare recorded Emax 5-HT2B with 60%; is it strictly lower for Cl.NCC1CC1c1c(OCCF)ccc(F)c1Cl (single isomer, unassigned; (-)) [(–)-21g] ?
satisfied

====

- experimental_system: human 5-HT2C-INI (Homo sapiens)
- Sequence (P28335 33-458): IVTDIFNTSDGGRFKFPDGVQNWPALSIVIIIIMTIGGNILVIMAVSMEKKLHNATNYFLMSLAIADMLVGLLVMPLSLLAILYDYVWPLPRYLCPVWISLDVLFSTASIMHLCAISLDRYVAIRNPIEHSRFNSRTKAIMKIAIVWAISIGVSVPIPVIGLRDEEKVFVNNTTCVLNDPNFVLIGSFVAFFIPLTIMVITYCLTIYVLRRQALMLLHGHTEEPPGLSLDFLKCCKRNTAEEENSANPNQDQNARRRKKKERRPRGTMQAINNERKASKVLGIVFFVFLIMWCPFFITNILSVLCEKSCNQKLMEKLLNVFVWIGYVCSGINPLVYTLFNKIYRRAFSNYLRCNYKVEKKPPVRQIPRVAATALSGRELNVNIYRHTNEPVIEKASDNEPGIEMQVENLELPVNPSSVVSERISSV
- protocol_text: FLIPR calcium flux assay, 5-HT2C
- Type: cell-based
- stated_conditions: read-out: EC50, nM 5-HT2C; FLIPR, HEK-293 cells stably expressing human receptor
property_name: log10 EC50 (log10 of the value in nM)
Please keep in mind that the values are log10 of EC50 expressed in nM.

Reference set, count: 9
INSERT INTO results (compound, property_name, measured) VALUES
  ('NCC1CC1c1c(OCCF)ccc(F)c1F (single isomer, unassigned; (+)) [(+)-21b]', 'log10 EC50', 1.40),
  ('NCC1CC1c1cc(F)c(F)cc1OCCF (single isomer, unassigned; (+)) [(+)-21a]', 'log10 EC50', 0.86),
  ('NCC1CC1c1cc(Cl)c(F)cc1OCCF (single isomer, unassigned; (+)) [(+)-21c]', 'log10 EC50', 1.38),
  ('C=CCOc1cc(F)c(Cl)cc1C1CC1CN.Cl (single isomer, unassigned; (+)) [(+)-22c]', 'log10 EC50', 1.62),
  ('C=CCOc1cc(Cl)c(Cl)cc1C1CC1CN (single isomer, unassigned; (+)) [(+)-22e]', 'log10 EC50', 1.79),
  ('C=CCOc1ccc(F)c(F)c1C1CC1CN.Cl (single isomer, unassigned; (+)) [(+)-22b]', 'log10 EC50', 1.56),
  ('C=CCOc1ccc(Cl)c(F)c1C1CC1CN.Cl (single isomer, unassigned; (+)) [(+)-22d]', 'log10 EC50', 2.06),
  ('NCC1CC1c1c(OCCF)ccc(F)c1Cl (single isomer, unassigned; (+)) [(+)-21g]', 'log10 EC50', 1.69),
  ('NCC1CC1c1cc(Cl)c(Cl)cc1OCCF (single isomer, unassigned; (+)) [(+)-21e]', 'log10 EC50', 1.26);

Moving on to another compound below.
Give human 5-HT2C-INI (Homo sapiens) log10 EC50 for Cl.NCC1CC1c1c(OCCF)ccc(Cl)c1F (single isomer, unassigned; (+)) [(+)-21d]
1.85

====

- experimental_system: human 5-HT2B (Homo sapiens)
- protocol_text: FLIPR calcium flux assay, 5-HT2B
- Type: cell-based
- stated_conditions: read-out: EC50, nM 5-HT2B
Reported EC50 by item:
All answers are understood in nM, so give the number only.

INSERT INTO assay_data (compound, measured) VALUES
  ('NCC1CC1c1cc(Cl)c(F)cc1OCCF (single isomer, unassigned; (+)) [(+)-21c]', 506);

Moving on to another compound below.
Need EC50 of C=CCOc1ccc(F)c(F)c1C1CC1CN.Cl (single isomer, unassigned; (+)) [(+)-22b] , thanks.
3340

====

- experimental_system: human 5-HT2B (Homo sapiens, UniProt P41595)
- Sequence (P41595 whole entry): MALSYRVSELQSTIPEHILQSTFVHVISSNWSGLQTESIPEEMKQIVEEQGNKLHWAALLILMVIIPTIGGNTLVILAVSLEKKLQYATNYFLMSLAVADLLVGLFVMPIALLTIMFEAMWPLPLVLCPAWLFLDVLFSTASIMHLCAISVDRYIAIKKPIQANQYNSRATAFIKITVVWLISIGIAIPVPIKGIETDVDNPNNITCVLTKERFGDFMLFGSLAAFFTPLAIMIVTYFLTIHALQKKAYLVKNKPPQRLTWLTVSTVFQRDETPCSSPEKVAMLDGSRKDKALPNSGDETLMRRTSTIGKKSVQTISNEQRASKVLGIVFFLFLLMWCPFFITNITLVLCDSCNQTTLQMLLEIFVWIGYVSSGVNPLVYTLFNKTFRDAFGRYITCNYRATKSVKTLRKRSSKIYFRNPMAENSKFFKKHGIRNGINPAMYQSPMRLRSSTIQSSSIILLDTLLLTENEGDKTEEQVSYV
- protocol_text: FLIPR calcium flux assay, 5-HT2B
- Type: cell-based
- stated_conditions: EC50, nM 5-HT2B, FLIPR, HEK-293 cells; NA = no activity (Emax < 15%) at 10 μM
property_name: EC50

INSERT INTO results (molecule, property_name, measured) VALUES
  ('Cl.NCC1CC1c1c(OCCF)ccc(Cl)c1Cl (single isomer, unassigned; (-)) [(–)-21f]', 'EC50', '> 10000 nM');

Moving on to another molecule below.
Need EC50 of NCC1CC1c1cc(Cl)c(Cl)cc1OCCF (single isomer, unassigned; (+)) [(+)-21e] , thanks.
> 10000 nM
